Test system: Aspergillus flavus
Assay: MIC, RPMI medium
Assay type: cell-based
Conditions: Aspergillus flavus, MIC banded into grades, read-out: MIC grade, A. flavus
Provide the recorded MIC for the entries that follow.

MIC in this record for COCC(C)N1CCN(c2ccc(NC(=O)C(=O)c3c(-c4ccccc4)cc(C)n3C)cc2)CC1 (stereo not shown) : < 1 µg/mL

The recorded MIC for "Cc1cc(-c2ccccc2)c(C(=O)C(=O)Nc2ccc(N3CCN(CC(C)C)CC3)c(F)c2)n1C" is < 1 µg/mL

# MIC (compound: "Cc1cc(C)nc(N2CCN(c3ccc(NC(=O)C(=O)c4c(-c5ccccc5)cc(C)n4C(C)C)cc3)CC2)c1" ) is > 10 µg/mL

Looking up "Cc1cc(C)nc(N2CCN(c3ccc(NC(=O)C(=O)c4cccn4-c4ccccc4)cc3)CC2)c1" , I found its MIC recorded as > 10 µg/mL

---

Tested on: Aspergillus terreus AT49
Experiment: MIC, YAG medium
Assay type: cell-based
Conditions: Aspergillus terreus, 24 h at 35° C, MIC banded into grades, read-out: MIC grade, A. terreus 49
property measured: MIC

COCCn1c(C)cc(-c2ccccc2)c1C(=O)C(=O)Nc1ccc(N2CCN(c3cc(C)cc(C)n3)CC2)cc1 [Example 9] yielded MIC of < 1 µg/mL

// recorded MIC for CCCOCn1c(C)cc(-c2ccccc2)c1C(=O)C(=O)Nc1ccc(N2CCN(c3cc(C)cc(C)n3)CC2)cc1 [Example 139] : < 1 µg/mL

# MIC of Cc1cc(C)nc(N2CCN(c3ccc(NC(=O)C(=O)c4c(-c5ccccc5)cc5n4CCOC5)cc3)CC2)c1 [Example 7] = < 1 µg/mL

// sample Cc1cc(-c2ccccc2)c(C(=O)C(=O)Nc2ccc(N3CCN(Cc4ccccc4)CC3)cc2)n1C [Example 144] , its MIC was < 1 µg/mL

Field MIC (entry Cc1cc(C)nc(N2CCN(c3ccc(NC(=O)C(=O)c4cc(-c5ccccc5)cn4C)cc3)CC2)c1 [Example 46] ) reads < 1 µg/mL

compound CCCCOCn1c(C)cc(-c2ccccc2)c1C(=O)C(=O)Nc1ccc(N2CCN(c3cc(C)cc(C)n3)CC2)cc1 [Example 135] , MIC observed: > 10 µg/mL

// MIC value for Cc1cc(-c2ccccc2)c(C(=O)C(=O)Nc2ccc(N3CCOCC3)cc2F)n1C [Example 101] : < 1 µg/mL

So, CCc1cc(-c2ccccc2)c(C(=O)C(=O)Nc2ccc(N3CCN(c4cc(C)cc(C)n4)CC3)cc2)n1C [Example 53] ? Its MIC was < 1 µg/mL

Record COCCn1ccc(CC(C)C)c1C(=O)C(=O)Nc1ccc(N2CCN(c3cc(C)cc(C)n3)CC2)cc1 [Example 68] . Reported MIC: 1 to 10 µg/mL

Briefly, MIC measured for CCCNC(=O)C(=O)c1c(-c2ccccc2)ccn1CCOC [Example 82] : 1 to 10 µg/mL

Lab note: measured MIC of Cc1cc(C)nc(N2CCN(c3ccc(NC(=O)C(=O)c4c(-c5ccccc5)cc(C)n4C(C)C)cc3)CC2)c1 [Example 8] was 1 to 10 µg/mL

Item: COCCn1c(C)cc(-c2ccccc2)c1C(=O)C(=O)Nc1ccc(N2CCOCC2)c(F)c1 [Example 126] | MIC: < 1 µg/mL

MIC reported for this compound COCCn1cc(-c2ccccc2Cl)cc1C(=O)C(=O)Nc1ccc(N2CCN(c3cc(C)cc(C)n3)CC2)cc1 [Example 58] : 1 to 10 µg/mL

# MIC of Cc1cc(-c2ccccc2)c(C(=O)C(=O)Nc2cccc3ccccc23)n1C [Example 16] = < 1 µg/mL

Lookup result for Cc1cc(-c2ccccc2)c(C(=O)C(=O)Nc2ccc(N3CCN(C(C)Cc4ccco4)CC3)cc2)n1C (stereo not drawn) [Example 152] ; measured MIC: < 1 µg/mL

---

Would you mind telling me the reported MIC of each entry?
System: Aspergillus terreus AT49
Assay: MIC, YAG medium
Format: cell-based
Settings: Aspergillus terreus, 24 h at 35° C, MIC banded into grades, read-out: MIC grade, A. terreus 49

MIC of "COCCCn1c(C)cc(-c2ccccc2)c1C(=O)C(=O)Nc1ccc(N2CCN(c3cc(C)cc(C)n3)CC2)cc1" , assay on Aspergillus terreus AT49, is < 1 µg/mL

I looked up "Cc1cc(-c2ccccc2)c(C(=O)C(=O)Nc2cnc3ccccc3c2)n1C" and its MIC for Aspergillus terreus AT49 was < 1 µg/mL

// compound "Cc1cc(-c2ccccc2)c(C(=O)C(=O)Nc2cccc3ccncc23)n1C" , assay Aspergillus terreus AT49, MIC value: 1 to 10 µg/mL

---

Please respond with reported MIC for every item in the list.

The molecule C=C(C)CN1CCN(c2ccc(NC(=O)C(=O)c3c(-c4ccccc4)cc(C)n3CCOC)c(F)c2)CC1 [Example 109] on Candida parapsilosis: MIC was < 1 µg/mL

Readout MIC for COCCn1ccc(-c2ccccc2)c1C(=O)C(=O)Nc1ccc(N2CCN(c3cc(C)cc(C)n3)CC2)cc1 [Example 47] , test system Candida parapsilosis, was 1 to 10 µg/mL

Value (MIC, Candida parapsilosis) for record COCCn1c(C)cc(-c2ccccc2)c1C(=O)C(=O)Nc1ccc(N2CCN(c3cc(C)cc(C)n3)CC2)cc1 [Example 9] = < 1 µg/mL

// MIC (Candida parapsilosis) for COCn1ccc(-c2ccccc2)c1C(=O)C(=O)Nc1ccc(N2CCN(c3cc(C)cc(C)n3)CC2)cc1 [Example 63] = < 1 µg/mL

Lab entry: Candida parapsilosis assay, molecule COCCn1ccc(-c2ccccc2)c1C(=O)C(=O)Nc1ccccc1 [Example 81] , MIC = < 1 µg/mL

Recorded MIC for CNC(=O)Cn1ccc(-c2ccccc2)c1C(=O)C(=O)Nc1ccc(N2CCN(c3cc(C)cc(C)n3)CC2)cc1 [Example 76] on Candida parapsilosis was < 1 µg/mL

# COCCn1ccc(-c2ccsc2)c1C(=O)C(=O)Nc1ccc(N2CCN(c3cc(C)cc(C)n3)CC2)cc1 [Example 72] with Candida parapsilosis: MIC is < 1 µg/mL

Form field MIC for item COCCn1ccc(-c2ccc(Cl)cc2)c1C(=O)C(=O)Nc1ccc(N2CCN(c3cc(C)cc(C)n3)CC2)cc1 [Example 59] on Candida parapsilosis: < 1 µg/mL

Param item: Cc1cc(C)nc(N2CCN(c3ccc(NC(=O)C(=O)c4c(-c5cccs5)cc(C)n4C)cc3)CC2)c1 [Example 13] ; param system: Candida parapsilosis; output MIC: < 1 µg/mL

Cc1cc(C)nc(N2CCN(c3ccc(NC(=O)C(=O)c4cc(-c5ccccc5)cn4CCN(C)C)cc3)CC2)c1 [Example 85] tested on Candida parapsilosis gave MIC: 1 to 10 µg/mL

---

System: Aspergillus flavus
Experiment: MIC, RPMI medium
Type: cell-based
Conditions: Aspergillus flavus, MIC banded into grades, read-out: MIC grade, A. flavus
property measured: MIC

Form: compound = "Cc1cc(C)nc(N2CCN(c3ccc(NC(=O)C(=O)c4c(-c5ccccc5)cc(C(C)C)n4C)cc3)CC2)c1" ; MIC = > 10 µg/mL

# MIC (compound: "Cc1cc(-c2ccccc2)c(C(=O)C(=O)Nc2ccc(N3CCCCC3)cc2)n1C" ) is < 1 µg/mL

Per the records, this compound ( "C=C(C)CN1CCN(c2ccc(NC(=O)C(=O)c3c(-c4ccccc4)cc(C)n3C)c(F)c2)CC1" ) has MIC equal to < 1 µg/mL

For "Cc1cc(C)nc(N2CCN(c3ccc(NC(=O)C(=O)c4c(-c5ccccc5)ccn4CCN(C)C)cc3)CC2)c1" the compound record lists MIC as > 10 µg/mL

---

Could you please report measured MIC for the items listed next?
System: Aspergillus flavus
Test: MIC, RPMI medium
Format: cell-based
Settings: Aspergillus flavus, MIC banded into grades, read-out: MIC grade, A. flavus

Log: Aspergillus flavus, molecule "COCCn1cc(-c2cccc(Cl)c2)cc1C(=O)C(=O)Nc1ccc(N2CCN(c3cc(C)cc(C)n3)CC2)cc1" , MIC = > 10 µg/mL

Aspergillus flavus MIC of "Cc1cc(C)nc(N2CCN(c3ccc(NC(=O)C(=O)c4c(-c5ccccc5)cc(C)n4C)cc3C)CC2)c1" is < 1 µg/mL

Let me check: "Cc1cc(C)nc(N2CCN(c3ccc(NC(=O)C(=O)c4c(-c5ccccc5)cc(C)n4C)cc3COCCCN3CCN(C)CC3)CC2)c1" , system Aspergillus flavus, measured MIC is > 10 µg/mL

Measured MIC for this entry "COCCc1cc(C)n(-c2ccccc2)c1C(=O)C(=O)Nc1ccc(N2CCN(c3cc(C)cc(C)n3)CC2)cc1" on Aspergillus flavus: > 10 µg/mL

Record "CCCn1c(C)cc(-c2ccccc2)c1C(=O)C(=O)Nc1ccc(N2CCN(c3cc(C)cc(C)n3)CC2)cc1" ; system Aspergillus flavus; MIC = < 1 µg/mL

Readout MIC for "CCCNC(=O)C(=O)c1cc(-c2ccccc2)cn1CCOC" , test system Aspergillus flavus, was > 10 µg/mL

Aspergillus flavus MIC of "COCCn1ccc(-c2ccc(Cl)cc2)c1C(=O)C(=O)Nc1ccc(N2CCN(c3cc(C)cc(C)n3)CC2)cc1" is > 10 µg/mL

// returns MIC for "COCCn1c(C)cc(-c2ccccc2)c1C(=O)C(=O)Nc1ccc(N2CCN(c3cc(C)cc(C)n3)CC2)cc1" with Aspergillus flavus; value = > 10 µg/mL

With Aspergillus flavus as the test system, "Cc1cc(-c2ccccc2)c(C(=O)C(=O)Nc2cccc3c(N4CCN(C)CC4)cccc23)n1C" showed MIC of 1 to 10 µg/mL

So the reported MIC for "Cc1cc(-c2ccccc2)c(C(=O)C(=O)Nc2ccc(N3CCOCC3)cc2)n1C" , on Aspergillus flavus, turned out to be < 1 µg/mL

Summary: "Cc1cc(-c2ccccc2)c(C(=O)C(=O)Nc2ccc(N3CCN(c4ccccn4)CC3)cc2)n1C" , Aspergillus flavus, MIC = < 1 µg/mL

MIC for Aspergillus flavus with input "Cc1cc(-c2ccccc2)c(C(=O)C(=O)Nc2ccc(N3CCN(c4ccccn4)CC3)cc2F)n1C" equals < 1 µg/mL

The reported Aspergillus flavus MIC of "Cc1cc(C)nc(N2CCN(c3ccc(NC(=O)C(=O)c4c(-c5ccccc5)c(C)cn4C)cc3)CC2)c1" is 1 to 10 µg/mL

Considering "COCn1ccc(-c2ccccc2)c1C(=O)C(=O)Nc1ccc(N2CCN(c3cc(C)cc(C)n3)CC2)cc1" , its MIC with Aspergillus flavus was recorded as < 1 µg/mL

Entry "CCn1ccc2c(F)c(NC(=O)C(=O)c3c(-c4ccccc4)cc(C)n3C)ccc21" , tested on Aspergillus flavus, has a reported MIC of < 1 µg/mL
